system: pigweed, palmer (palmer pigweed, Amaranthus palmeri); assay: Test E greenhouse herbicide test, pre- and postemergence; assay type: in vivo; details: Preemergence, 31 g ai/ha; scale 0 to 100, 0 no effect, 100 complete control
Quick rule for you: Plant response rating, Pigweed, Palmer at 60 or higher means MET, lower means NOT MET.

| compound | assigned class |
| --- | --- |
| Cc1cc(C)c2ccccc2c1-c1c(O)c(C)nn(C)c1=O [Compound 21] | MET |
| CCCC(=O)Oc1c(C)nn(C)c(=O)c1-c1c(C)sc2ccc(C)cc12 [Compound 105] | NOT MET |
| COC(=O)Oc1c(C)nn(C)c(=O)c1-c1c(C)sc2ccc(C)cc12 [Compound 80] | NOT MET |
| Cc1ccc2ccccc2c1-c1c(O)c(I)nn(C)c1=O [Compound 29] | MET |
| Cc1nn(C)c(=O)c(-c2ccc(Br)c3ccccc23)c1O [Compound 75] | NOT MET |
| Cc1nn(C)c(=O)c(-c2ccc(F)c3ccccc23)c1O [Compound 41] | NOT MET |

====

test system: johnsongrass (Sorghum halepense); test: Test C greenhouse herbicide test, pre- and postemergence; format: in vivo; conditions: Postemergence, 250 g ai/ha; scale 0 to 100, 0 no effect, 100 complete control; 13 to 15 d
Below, each entry is listed with its recorded Plant response rating, Johnsongrass.

| compound | Plant response rating, Johnsongrass |
| --- | --- |
| Cc1nn(C)c(=O)c(-c2ccc(Br)c3ccccc23)c1O [Compound 75] | 10 |
| Cc1sc2ccccc2c1-c1c(O)c(Cl)nn(C)c1=O [Compound 89] | 5 |
| Cc1ccc2sc(C)c(-c3c(OC(=O)C(C)(C)C)c(C)nn(C)c3=O)c2c1 [Compound 26] | 5 |
| CCc1oc2ccc(C)cc2c1-c1c(O)c(C)nn(C)c1=O [Compound 10] | 25 |
| CCc1sc2ccc(C)cc2c1-c1c(O)c(C)nn(C)c1=O [Compound 47] | 25 |
| CC(=O)Oc1c(C)nn(C)c(=O)c1-c1c(C)sc2ccc(Cl)cc12 [Compound 108] | 5 |

====

system: soybean (Glycine max); experiment: Test E greenhouse herbicide test, pre- and postemergence; format: in vivo; conditions: 62 g ai/ha, Preemergence; scale 0 to 100 (0 no effect, 100 complete control)
Each item that follows carries a reported Plant response rating, Soybean.
result type: Plant response rating, Soybean

| molecule smiles | study system | test value |
| --- | --- | --- |
| Cc1cc(C)c2sc(C)c(-c3c(O)c(C)nn(C)c3=O)c2c1 | soybean (Glycine max) | 0 |
| COC(=O)Oc1c(C)nn(C)c(=O)c1-c1c(C)sc2ccc(C)cc12 | soybean (Glycine max) | 0 |
| CCc1sc2c(C)cc(C)cc2c1-c1c(O)c(C)nn(C)c1=O | soybean (Glycine max) | 0 |
| Cc1nn(C)c(=O)c(-c2ccc(Br)c3ccccc23)c1O | soybean (Glycine max) | 35 |
| Cc1ccc2sc(Br)c(-c3c(O)c(C)nn(C)c3=O)c2c1 | soybean (Glycine max) | 50 |

====

system: barley, winter (winter barley, Hordeum vulgare); experiment: Test D controlled growth environment herbicide test, pre- and postemergence; assay type: in vivo; details: Postemergence, 31 g ai/ha; scale 0 to 100 (0 no effect, 100 complete control)
# Lookup of reported Plant response rating, Barley, Winter keyed by entry
result type: Plant response rating, Barley, Winter

| molecule smiles | test value |
| --- | --- |
| Cn1nc(Br)c(O)c(-c2cccc3ccccc23)c1=O | 0 |
| Cc1cc2ccccc2c(-c2c(O)c(C)nn(C)c2=O)c1C | 0 |
| Cc1nn(C)c(=O)c(-c2cccc3ccccc23)c1O | 20 |
| Cc1cc(C)c2sc(C)c(-c3c(O)c(C)nn(C)c3=O)c2c1 | 10 |

====

tested on: lambsquarters (Chenopodium album); test: Test C greenhouse herbicide test, pre- and postemergence; type: in vivo; details: Preemergence, 31 g ai/ha; scale 0 to 100, 0 is no effect, 100 is complete control
Known Plant response rating, Lambsquarters of a selection of compounds
result type: Plant response rating, Lambsquarters

| compound | result type | test value |
| --- | --- | --- |
| CCc1sc2ccc(C)cc2c1-c1c(O)c(C)nn(C)c1=O [Compound 47] | Plant response rating, Lambsquarters | 100 |
| CCC(=O)Oc1c(C)nn(C)c(=O)c1-c1ccc(F)c2ccccc12 [Compound 113] | Plant response rating, Lambsquarters | 90 |
| CC(=O)Oc1c(C)nn(C)c(=O)c1-c1c(C)sc2ccc(Cl)cc12 [Compound 108] | Plant response rating, Lambsquarters | 85 |
| CC(=O)Oc1c(C)nn(C)c(=O)c1-c1c(C)sc2ccc(C(F)(F)F)cc12 [Compound 132] | Plant response rating, Lambsquarters | 50 |
| Cc1cc(C)c2ccccc2c1-c1c(O)c(C)nn(C)c1=O [Compound 21] | Plant response rating, Lambsquarters | 90 |
| Cc1cc(C)c2sc(C)c(-c3c(O)c(C)nn(C)c3=O)c2c1 [Compound 2] | Plant response rating, Lambsquarters | 100 |
| CCC(=O)Oc1c(C)nn(C)c(=O)c1-c1ccc(Br)c2ccccc12 [Compound 134] | Plant response rating, Lambsquarters | 75 |
| COC(=O)Oc1c(C)nn(C)c(=O)c1-c1c(C)sc2ccc(C)cc12 [Compound 80] | Plant response rating, Lambsquarters | 90 |
| Cc1nn(C)c(=O)c(-c2ccc(Br)c3ccccc23)c1O [Compound 75] | Plant response rating, Lambsquarters | 65 |
| Cc1nn(C)c(=O)c(-c2c(C)sc3c(C)cc(Cl)cc23)c1O [Compound 35] | Plant response rating, Lambsquarters | 20 |

====

Item-by-item account of Plant response rating, Blackgrass
system: blackgrass (Alopecurus myosuroides); experiment: Test C greenhouse herbicide test, pre- and postemergence; type: in vivo; details: Preemergence, 125 g ai/ha; scale 0 to 100, 0 is no effect, 100 is complete control
result type: Plant response rating, Blackgrass

| compound | test value |
| --- | --- |
| CCc1sc2c(C)cc(C)cc2c1-c1c(O)c(C)nn(C)c1=O [Compound 57] | 70 |
| COC(=O)Oc1c(C)nn(C)c(=O)c1-c1c(C)sc2ccc(C)cc12 [Compound 80] | 80 |
| CCC(=O)Oc1c(C)nn(C)c(=O)c1-c1ccc(F)c2ccccc12 [Compound 113] | 55 |
| Cc1sc2ccccc2c1-c1c(O)c(Cl)nn(C)c1=O [Compound 89] | 40 |
| Cc1nn(C)c(=O)c(-c2ccc(F)c3ccccc23)c1O [Compound 41] | 85 |

====

system: pigweed (Amaranthus retroflexus); assay: Test A greenhouse herbicide test, pre- and postemergence; assay type: in vivo; conditions: Preemergence, 500 g ai/ha; 0 to 100 scale, 0 no effect, 100 complete control
Lab note: cut-off is 90. Strictly less in Plant response rating, Pigweed is 1. Exactly 90 or more is 0.

| molecule smiles | assigned class |
| --- | --- |
| Cc1sc2ccccc2c1-c1c(O)cnn(C)c1=O | 1 |
| COc1ccc2sc(C)c(-c3c(O)c(C)nn(C)c3=O)c2c1 | 1 |
| CCC(=O)Oc1c(C)nn(C)c(=O)c1-c1ccc(Cl)c2ccccc12 | 0 |
| Cn1nc(Br)c(O)c(-c2cccc3ccccc23)c1=O | 0 |
| CCc1nn(CC)c(=O)c(-c2c(C)oc3ccc(C)cc23)c1O | 1 |

====

tested on: kochia (Kochia scoparia); experiment: Test A greenhouse herbicide test, pre- and postemergence; assay type: in vivo; settings: Postemergence, 125 g ai/ha; 0 to 100 scale where 0 is no effect and 100 is complete control

| molecule smiles | study system | Plant response rating, Kochia |
| --- | --- | --- |
| COC(=O)Oc1c(OC)nn(C)c(=O)c1-c1c(C)sc2ccc(Cl)cc12 | kochia (Kochia scoparia) | 20 |
| Cc1sc2ccc(C(F)(F)F)cc2c1-c1c(O)c(Cl)nn(C)c1=O | kochia (Kochia scoparia) | 30 |
| CCc1nn(C)c(=O)c(-c2c(C)oc3ccc(Cl)cc23)c1O | kochia (Kochia scoparia) | 0 |
| COC(=O)Oc1c(C)nn(C)c(=O)c1-c1c(C)sc2ccc(C)cc12 | kochia (Kochia scoparia) | 90 |
| CCc1nn(CC)c(=O)c(-c2c(C)oc3ccc(C)cc23)c1O | kochia (Kochia scoparia) | 0 |
| Cc1nn(C)c(=O)c(-c2ccc(Cl)c3ccccc23)c1O | kochia (Kochia scoparia) | 100 |
| CCc1sc2ccc(C)cc2c1-c1c(O)c(C)nn(C)c1=O | kochia (Kochia scoparia) | 90 |
| Cc1nn(C)c(=O)c(-c2cccc3ccc(OC(F)F)cc23)c1O | kochia (Kochia scoparia) | 20 |
| Cc1sc2ccccc2c1-c1c(O)c(Cl)nn(C)c1=O | kochia (Kochia scoparia) | 80 |
